Target: HLA-A*02:01
Assay: IEDB peptide-MHC binding, purified MHC/direct/fluorescence; filed as Kd, often an IC50 or EC50 that approximates it; bounds were set here for any values at or beyond the usual limits of such assays
Settings: source organism: Human immunodeficiency virus 1
Property: Kd (nM)
The reply should contain only the number, in nM.

Example entries begin here.
{"Monomer sequence": "RSLYNTIAVLY", "Assayed system": "HLA-A*02:01", "Kd, nM": 5}
{"Monomer sequence": "RSLFNTIAVLY", "Assayed system": "HLA-A*02:01", "Kd, nM": 5}

## Task Which Kd is listed for `KSLFNTVATL` ?
## Result 5

## Task Same thing, different sequence: `RSLYNTIATL`
## Result 10

## Task Ok, now `RSLFNTVAVLY`
## Result 5

## Task Proceed to `RSLYNTIATLY`
## Result 40

## Task Can you handle `RSLYNTVATLY` next?
## Result 10

## Task Please answer likewise for `RSLYNTVATL`
## Result 10

## Task Now the same for `KSLYNTVAVL`
## Result 5

----------
Molecular target: HLA-A*02:01
Assay: IEDB peptide-MHC binding, purified MHC/direct/fluorescence; filed as Kd, often an IC50 or EC50 that approximates it; bounds were set here for any values at or beyond the usual limits of such assays
Conditions: source organism: Human immunodeficiency virus 1
Kd: recorded values
// units = nM; emit number, no label

{"Monomer sequence": "KSLFNTIAVLY", "Assayed system": "HLA-A*02:01", "Property": "Kd", "Recorded number": 5}
{"Monomer sequence": "SLFNTVATLY", "Assayed system": "HLA-A*02:01", "Property": "Kd", "Recorded number": 5}
{"Monomer sequence": "SLFNTIAVLY", "Assayed system": "HLA-A*02:01", "Property": "Kd", "Recorded number": 5}
{"Monomer sequence": "KSLYNTVATL", "Assayed system": "HLA-A*02:01", "Property": "Kd", "Recorded number": 10}

// next item, Kd requested
## Task Value wanted: Kd (HLA-A*02:01) of entry `SLFNTVAVLY`
## Result 5
